System: MCF7
TEST_DETAILS: Antiproliferative activity against human MCF7 cells assessed as reduction in cell viability after 72 hrs by MTT assay
Type: functional, cell-based
REPORTED_CONDITIONS: MCF7, 72 h
Catalogue of IC50 readings, one per entry.

Examples from the recorded data:
Query string: Entry COc1cc(CC/C=C/C(=O)CCc2ccccc2)ccc1O : reported IC50 = ?
Result string: 3.9 µM

Query string: Now the same for COc1cc(CC[C@@H](O)CC(=O)CCc2ccccc2)ccc1O
Result string: > 50 µM

Next up:
Query string: Field request: IC50 | item: COc1cc(CC[C@H](O)CC(=O)CCc2ccccc2)ccc1O
Result string: > 50 µM
